Give pKd for every item shown.
system: T1, KHSRP130-503 (four KH domains) (Homo sapiens, UniProt Q92945 130-503)
T1 sequence: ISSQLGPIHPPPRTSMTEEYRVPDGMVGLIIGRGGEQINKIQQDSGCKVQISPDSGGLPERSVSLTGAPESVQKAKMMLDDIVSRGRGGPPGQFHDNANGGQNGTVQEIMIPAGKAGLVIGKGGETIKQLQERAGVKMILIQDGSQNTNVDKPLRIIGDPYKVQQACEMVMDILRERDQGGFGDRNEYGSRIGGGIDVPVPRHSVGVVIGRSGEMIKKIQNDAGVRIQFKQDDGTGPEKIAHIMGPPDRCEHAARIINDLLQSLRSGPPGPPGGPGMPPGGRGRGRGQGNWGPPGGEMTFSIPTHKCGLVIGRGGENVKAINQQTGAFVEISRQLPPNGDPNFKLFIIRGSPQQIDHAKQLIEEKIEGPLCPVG
procedure.details: SPR; 25 C, single-cycle kinetics; SPR at 25 C, 1-20 uM G4 over immobilized protein (buffer not in the material); NMR at 25 C (298 K), protein in 5 mM KH2PO4/K2HPO4 pH 7.0, 20 mM KCl
test.context: protein: recombinant; tags: N-terminal His-tag (pET-28a), TEV-cleaved; parallel G4, intramolecular
Answers are plain numbers, as −log10 of the molar value.

> print(dat)
                                     binder  numeric.result
1  CGGGCGGGCGCTAGGGAGGGT (structured_DNA) [c-Kit2]            7.25
2  AGGGAGGGCGCTGGGAGGAGGG (structured_DNA) [c-Kit1]            6.72

Given the binder TGAGGGTGGGTAGGGTGGGTAA (structured_DNA) [c-Myc] , write its reported pKd.
6.89

Hey, just so you know, these numbers are from paper PMC11848572.
